The reported measurements were obtained from patent US9850283B2.

Consider the following compounds and their measured pIC50 readings.
Molecular target: Human PD-L1/PD-1 (Homo sapiens, UniProt Q9NZQ7)
Construct: made in house; host or cells: HEK293T
Sequence (Q9NZQ7 with tags, fused parts or gaps): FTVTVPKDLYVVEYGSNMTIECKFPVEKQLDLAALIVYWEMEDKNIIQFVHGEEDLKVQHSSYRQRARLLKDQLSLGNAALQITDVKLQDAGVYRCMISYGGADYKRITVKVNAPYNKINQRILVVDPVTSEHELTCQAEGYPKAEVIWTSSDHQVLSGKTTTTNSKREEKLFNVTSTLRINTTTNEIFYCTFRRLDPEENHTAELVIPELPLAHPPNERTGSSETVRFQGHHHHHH
Experiment: HTRF PD-1-Ig/PD-L1-His binding assay (human PD-L1)
Details: cluster symbol; read-out: HTRF IC50 cluster
pIC50: −log10 of the molar value. Positions of bridges follow the written chain, without caps; N, C: chain ends. Non-standard residues stand in square brackets, D forms with d. Residues, ends and D or L forms follow the SMILES beside them. Phe(2-Me) = Cc1ccccc1C[C@H](N)C(=O)O; NMeNle = CCCC[C@H](NC)C(=O)O; NMeA = CN[C@@H](C)C(=O)O; Orn = NCCC[C@H](N)C(=O)O; Dab = NCC[C@H](N)C(=O)O; Dap = NC[C@H](N)C(=O)O; Sar = CNCC(=O)O

Answered cases to consult:
>  <COMPOUND>
CCCC[C@H]1C(=O)N[C@@H](Cc2c[nH]c3ccccc23)C(=O)N[C@@H](CCN)C(=O)N[C@@H](Cc2c[nH]c3ccccc23)C(=O)N(C)[C@@H](CCCC)C(=O)N(C)[C@@H](CCCC)C(=O)N[C@@H](CC(C)C)C(=O)N[C@H](C(=O)NCC(N)=O)CSCC(=O)N[C@@H](Cc2ccc(O)cc2)C(=O)N(C)[C@@H](C)C(=O)N[C@@H](CC(N)=O)C(=O)N2CCC[C@H]2C(=O)N[C@@H](CN)C(=O)N[C@@H](CC(C)C)C(=O)N1C [Example 6041] ({CH2CO}-Y[NMeA]NP[Dap]L[NMeNle]W[Dab]W[NMeNle][NMeNle]LCG-NH2; thioether N-14)

>  <pIC50>
7.52 to 8.17

$$$$
>  <COMPOUND>
CCCC[C@H]1C(=O)N(C)[C@@H](CCCC)C(=O)N[C@@H](CCCNC(=N)N)C(=O)N[C@H](C(=O)NCC(N)=O)CSCC(=O)N[C@@H](Cc2ccccc2)C(=O)N(C)[C@@H](C)C(=O)N[C@@H](CC(N)=O)C(=O)N2CCC[C@H]2C(=O)N[C@@H](CCCN)C(=O)N[C@@H](CC(C)C)C(=O)N(C)CC(=O)N[C@@H](Cc2c[nH]c3ccccc23)C(=O)N[C@@H](CO)C(=O)N[C@@H](Cc2c[nH]c3ccccc23)C(=O)N1C [Example 1059] ({CH2CO}-F[NMeA]NP[Orn]L[Sar]WSW[NMeNle][NMeNle]RCG-NH2; thioether N-14)

>  <pIC50>
< 7.52

$$$$
>  <COMPOUND>
CCCC[C@H]1C(=O)N(C)[C@@H](CCCC)C(=O)N[C@@H](CCCNC(=N)N)C(=O)N[C@H](C(=O)NCC(N)=O)CSCC(=O)N[C@@H](Cc2ccccc2C)C(=O)N(C)[C@@H](C)C(=O)N[C@@H](CC(N)=O)C(=O)N2CCC[C@H]2C(=O)N[C@@H](Cc2cnc[nH]2)C(=O)N[C@@H](CC(C)C)C(=O)N(C)CC(=O)N[C@@H](Cc2c[nH]c3ccccc23)C(=O)N[C@@H](CO)C(=O)N[C@@H](Cc2c[nH]c3ccccc23)C(=O)N1C [Example 1106] ({CH2CO}-[Phe(2-Me)][NMeA]NPHL[Sar]WSW[NMeNle][NMeNle]RCG-NH2; thioether N-14)

>  <pIC50>
7.52 to 8.17

$$$$

API: the following record is the query input.
Req: Record request: pIC50 value, item CCCC[C@H]1C(=O)N(C)[C@@H](CCSC)C(=O)N[C@@H](C)C(=O)NC(C(=O)NCC(N)=O)CSCC(=O)N[C@@H](Cc2ccc(O)cc2)C(=O)N(C)[C@@H](C)C(=O)N[C@@H](CC(N)=O)C(=O)N2CCC[C@H]2C(=O)N[C@@H](CN)C(=O)N[C@@H](CC(C)C)C(=O)N2C[C@H](O)C[C@H]2C(=O)N[C@@H](Cc2c[nH]c3ccccc23)C(=O)N[C@@H](CO)C(=O)N[C@@H](Cc2c[nH]c3ccccc23)C(=O)N1C (stereo partly shown)
Resp: 8.17 to 9.41
